- System: Human papillomavirus type 1a protein E7 (residues 44-93)
- METHOD_NOTES: HPV1a E7 fragment binders on microarrays, primary screen, biochemical, small-molecule microarray, residues 44-93, 635 nm fluorescence (AID 1108);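 also: E7 fragment applied at 1 µg/mL in TBST for 1 h at 4 C; score combines spot fluorescence with its signal to noise ratio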
- ASSAY_CONTEXT: small-molecule microarray binding, fluorescence 635 nm; higher = more signal
ASSAY_READOUT: composite z-score
No unit in the answer, please; the number alone is enough.

MOLECULE	ASSAY_READOUT	QUANTITATIVE_RESULT
CCOC(=O)C[C@H]1[C@H](OC(=O)c2ccc(-c3ccccc3)cc2)[C@@H](NC(=O)c2ccc3ccccc3c2)c2cc(OCCCO)ccc2N1C(=O)c1ccccc1	composite z-score	0.965
CCCCC(O)C1C=CC2C(=O)NC(=O)C2N1Nc1ccccn1 (centres undefined)	composite z-score	-0.382
COC(=O)[C@@]1(Cc2ccc(OC)cc2)[C@H]2c3cc(C(=O)N4CCCC4)n(CCc4ccc(OC)c(Br)c4)c3C[C@H]2CN1C(=O)c1ccccc1	composite z-score	-0.027

Kindly review the next molecule as well.
Query :: Which composite z-score value is on record for `C=C(COC)C(=O)CC[C@@H](OC(C)=O)c1ccc(OCCO)cc1` ?
Result :: -0.133

* * *

Measured composite z-score accompanies every entry in the list below.
- METHOD_NOTES: binders of probe aFGF2 on microarray, primary screen, stem cell growth factor project, biochemical, small-molecule microarray, fluorescence 635/667 (AID 1067);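 also: measures binding of biotinylated aFGF2 protein to printed compounds on slides; z-score merges feature fluorescence and signal-to-noise across triplicate slides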
- ASSAY_CONTEXT: higher = more signal

Query :: What value of composite z-score has been reported for the following compound? `C[N+](C)(C)CCCCCCNC(=O)[C@H]1C[C@H]2C(=O)NCC(=O)N2[C@H]1c1cccc(OCCO)c1`
Result :: -0.0316

Query :: Using the record for `CC(C)CNC(=O)[C@@H]1c2ccccc2C(=O)N(Cc2ccccc2)[C@H]1c1ccc(CO)cc1` , report its composite z-score.
Result :: 0.0173

Query :: # lookup: composite z-score of `O=C1N(Cc2ccccc2)c2ccccc2[C@H]2OC(c3ccc(OCCCO)cc3)=N[C@@]12Cc1ccccc1`
Result :: 0.202

* * *

- METHOD_NOTES: adipocyte viability effects, profiling panel, cell-based, 3T3-L1 adipocytes, calcein-AM fluorescence, 48 h, basal (AID 1163); also: test concentration not given here
- ASSAY_CONTEXT: 3T3-L1 adipocytes viability, higher = more signal
Each record here notes measured z-score.
Form: value (number only, do not type unit).

COC(=O)[C@@]1(CCC(=O)OC(C)(C)C)N=C(c2ccc(OCCCO)cc2)O[C@H]1c1ccccc1CN=[N+]=[N-] -1.3
CCCCCCc1nc(-c2ccc(OC)nc2)cc2c1[Si](C(C)C)(C(C)C)OC2 0.608
CC(=O)NCCCC[C@@H]1NC(=O)[C@@H]2C[C@H](C(=O)NCCCCCC[N+](C)(C)C)[C@H](c3ccc(O)cc3)N2C1=O -0.348

Lab note: next compound to report on.
Query :: Item under review: `COC(=O)[C@H](Cc1ccc(O)cc1)N1CC2=CCCC=C[C@@H]2[C@H]1[C@H](O)Cc1ccccc1` . Reported z-score?
Result :: 0.308

* * *

In this section, each of the compounds is paired with its reported composite z-score.
- ASSAYED_TARGET: Calmodulin-1 (Homo sapiens)
- METHOD_NOTES: CALM1 binders on microarrays, EGTA buffer, profiling panel, biochemical, small-molecule microarray, Cy5-labelled CALM1 (AID 1111);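 also: labelled calmodulin applied in Tris saline Tween buffer holding calcium plus EGTA and DTT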
- ASSAY_CONTEXT: Cy5-CALM1 binding fluorescence, higher = more signal
Number only, no unit.

COMPOUND	composite z-score
CN(C)C(=O)[C@]1(Cc2ccccc2)N=C(c2ccc(OCCCO)cc2)O[C@@H]1c1ccccc1	1.25
C[C@H]1C2[C@H](Cc3ccccc3)NC(=O)[C@]23C(=O)NCC(=O)N2CCC[C@H]2C(=O)NC/C=C\C/C=C/C3[C@@H]2O[C@]12C (stereo partly specified)	-0.549
NC(=O)NCC#Cc1ccc2c(c1)[C@]1(C(=O)N2)[C@H](C(=O)N2CCCCCCC2)[C@H]2C(=O)O[C@H](c3ccccc3)[C@H](c3ccccc3)N2[C@@H]1c1ccc(O)cc1	2.38

Query :: Entry C=CCC(OC(C)=O)[C@@H]1[C@@H](N(Cc2ccc(-c3cccc(C(F)(F)F)c3)o2)C(=O)Cc2ccc(OC)cc2)c2cc(OCCCO)ccc2N1C(=O)c1ccc2ccccc2n1 (stereo partly specified) has what composite z-score?
Result :: -0.698

Query :: Look at this compound and give its reported composite z-score. `O=C1O[C@H](c2ccccc2)[C@H](c2ccccc2)N2[C@H]1[C@@H](C(=O)N1CCN(c3ncccn3)CC1)[C@]1(C(=O)Nc3ccccc31)[C@H]2c1ccc(O)cc1`
Result :: 1.28

Query :: What value of composite z-score has been reported for the following compound? `COC(=O)[C@@H]1N=C(c2ccc(OCCCO)cc2)O[C@@H]1c1ccccc1CN=[N+]=[N-]`
Result :: 0.393
